Tested on: Pieris brassicae
Test: Biological activity on Pieris brassicae (Lepidoptera)
Assay type: in vivo
Conditions: 48 h, read-out: Activity (mortality class), Pieris B.
Field: mortality at 0.001 %. Provide a value for each of the compounds that follow.

QUERY: Recorded mortality at 0.001 % for `CCOP(=S)(OCC)Oc1nc(C=C(C)C)nn1C` , please?
RESULT: 10 to 69%

QUERY: Quick one: `CCOP(=S)(OCC)Oc1nc(C(Cl)=C(Cl)Cl)nn1C`
RESULT: 70 to 99%

QUERY: Quick one: `CC=Cc1nc(OP(=S)(OCC)OCC)n(C)n1`
RESULT: 10 to 69%

QUERY: Quick one: `CCOP(=S)(OCC)Oc1nc(C=C(Cl)SC)nn1C`
RESULT: 10 to 69%

Where these numbers come from: patent US4400517A
